- Test system: IL-1β cytokine output from isolated primary HMDMs
- protocol: Primary human monocyte derived macrophages (HMDMs) AlphaLISA IL-1β cytokine assay
- Type: cell-based
- condition: primary HMDMs (M-CSF 7 day), LPS 24 hr then Nigericin 1 hour
Counter-ions that a name gives are not always drawn.
Listed next: entries and their corresponding pIC50.
Scale for pIC50: -log10 of concentration given in mol/L; no unit attached.

Consider the reported pIC50 for these molecules:
* C=C(CC(=O)OCCCCCCCC)C(=O)OCCN1C(=O)CCC1=O [Example 9] | 5.92
* C=C(CC(=O)OCCCCCCCC)C(=O)OC1COC1 [Example 4] | 6.40
* C=C(CC(=O)OCCCCCCCC)C(=O)OCCC(F)(F)F [Example 3] | 6.15
* C=C(CC(=O)OCCCCCCCC)C(=O)OCCS(C)(=O)=O [Example 2] | 6.52
* C=C(CC(=O)OCCCCCCCC)C(=O)OCCC#N [Example 1] | 6.40

Please find the next molecule below.
Incoming: Under IL-1β cytokine output from isolated primary HMDMs: report pIC50 of COC(=O)/C=C/C(=O)OC [dimethyl fumarate, reference compound] .
Outgoing: 5.70

====

- Test system: IL-6 cytokine output from isolated primary human monocytes
- protocol: Primary human monocyte AlphaLISA IL-6 cytokine assay
- Format: cell-based
- condition: CD14+ primary human monocytes, LPS 24 hr then Nigericin 1 hour
Counter-ions that a name gives are not always drawn.
Listed next: entries and their corresponding IC50.

• COC(=O)/C=C/C(=O)OC [dimethyl fumarate, reference compound] = 15.7 µM
• C=C(CC(=O)OCCCCCCCC)C(=O)OCCS(C)(=O)=O = 13.2 µM
• C=C(CC(=O)OCCCCCCCC)C(=O)OCCN1C(=O)CCC1=O = 10.7 µM

Please find the next molecule below.
Incoming: Specify measured IC50 for C=C(CC(=O)OCCCCCCCC)C(=O)OCCC#N .
Outgoing: 26.9 µM

====

Listed next: entries and their corresponding concentration at 4 h.
- protocol: Mouse pharmacokinetic study, oral administration
- Assay type: in vivo
- condition: male, C57BL/6, po; mouse plasma, Example 112 dosed orally at 100 mg/kg (Intermediate 8 = metabolite), time 4 h; read-out: Example 112 and Intermediate 8 concentrations following oral administration
// return the numeric value with its unit appended

Incoming: Specify measured concentration at 4 h for C=C(CC(=O)O[C@H](C)CCCCCC)C(=O)O [Intermediate 8] .
Outgoing: 719 ng/mL

Incoming: Specify measured concentration at 4 h for C=C(CC(=O)O[C@H](C)CCCCCC)C(=O)OCC(=O)O .
Outgoing: 4880 ng/mL

====

- protocol: Mouse pharmacokinetic study, oral administration
- Type: in vivo
- condition: male, C57BL/6, mouse, plasma, po, 100 mg/kg, plasma, male C57BL/6 mice, oral gavage 100 mg/kg, 0.5 h; read-out: Parent compound concentrations following oral administration, Time 0.5 h
Listed next: entries and their corresponding concentration at 0.5 h.
Write the value in ng/mL as a bare number.

Consider the reported concentration at 0.5 h for these compounds:
* C=C(CC(=O)OCCCCCCCC)C(=O)OCCC(=O)O | 1150
* C=C(CC(=O)O[C@@H](CC)CCCCC)C(=O)OCC(=O)O | 40600
* C=C(CC(=O)OC1CCCCCCC1)C(=O)OC(C)c1nnn[nH]1 (centres unmarked) | 4270
* C=C(CC(=O)O[C@H](C)CCCCCC)C(=O)OCc1nn[nH]n1 | 1900
* C=C(CC(=O)OC1CCCCC1)C(=O)OCc1nnn[nH]1 | 2650

Incoming: Specify measured concentration at 0.5 h for C=C(CC(=O)OC1CCCCCCC1)C(=O)OCCC(=O)O .
Outgoing: 6450

Incoming: Specify measured concentration at 0.5 h for C=C(CC(=O)OC1CCCCCCC1)C(=O)OCC(=O)O .
Outgoing: 6200

Incoming: Specify measured concentration at 0.5 h for C=C(CC(=O)OCCCCCC)C(=O)OCC(=O)O .
Outgoing: 8220

Incoming: Specify measured concentration at 0.5 h for C=C(CC(=O)O[C@H](C)CCCCCC)C(=O)OCC(=O)O .
Outgoing: 72300

Incoming: Specify measured concentration at 0.5 h for C=C(CC(=O)OC(CCCC)CCCC)C(=O)OCC(=O)O .
Outgoing: 18200

Incoming: Specify measured concentration at 0.5 h for C=C(CC(=O)OC1CCCCC1)C(=O)OCC(=O)O .
Outgoing: 6240

Incoming: Specify measured concentration at 0.5 h for C=C(CC(=O)OCCCCCCCC)C(=O)OCC(=O)O .
Outgoing: 843

Incoming: Specify measured concentration at 0.5 h for C=C(CC(=O)OC(C)(C)CCCCCC)C(=O)OCC(=O)O .
Outgoing: 37900

Incoming: Specify measured concentration at 0.5 h for C=C(CC(=O)O[C@@H](C)CCCCCC)C(=O)OCc1nn[nH]n1 .
Outgoing: 1860

Incoming: Specify measured concentration at 0.5 h for C=C(CC(=O)OC1CCCCC1)C(=O)OCCC(=O)O .
Outgoing: 15900

Incoming: Specify measured concentration at 0.5 h for C=C(CC(=O)OC1CCCCCCC1)C(=O)OCc1nnn[nH]1 .
Outgoing: 7970
